# credit: patent US20230322767A1

I'd be grateful if you could share measured pIC50 for these entries.
pIC50 (log units): -log10 of the concentration in mol/L.

Exercise: Query pIC50 on CSNK1A1 (Homo sapiens (Human)) for O=C(Cc1ccc(F)cc1)Nc1cc(-c2[nH]c3c(c2-c2ccccc2)C(=O)NCC3)ccn1
Sequence (P48729 whole entry): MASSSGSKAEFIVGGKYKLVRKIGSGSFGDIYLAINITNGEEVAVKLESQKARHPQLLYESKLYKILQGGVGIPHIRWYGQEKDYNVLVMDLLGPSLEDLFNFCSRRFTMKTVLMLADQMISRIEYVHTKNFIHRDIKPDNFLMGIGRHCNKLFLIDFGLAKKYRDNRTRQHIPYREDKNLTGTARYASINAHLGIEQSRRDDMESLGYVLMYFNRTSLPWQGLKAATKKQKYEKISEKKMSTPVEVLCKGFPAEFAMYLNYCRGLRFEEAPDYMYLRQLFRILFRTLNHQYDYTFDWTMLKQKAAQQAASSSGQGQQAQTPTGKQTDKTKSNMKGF
Key: 9.18

Exercise: Query pIC50 on CSNK1A1 (Homo sapiens (Human)) for Cc1cccc(-c2c(-c3ccnc(NC(=O)C(C)c4ccc(F)cc4)c3)[nH]c3c2C(=O)NC(C)(C)C3)c1 (racemic)
Key: 8.07

Exercise: Query pIC50 on CSNK1A1 (Homo sapiens (Human)) for CN1C(=O)c2c([nH]c(-c3ccnc(NC(=O)C(CC(F)F)c4ccc(F)cc4)c3)c2-c2ccc(F)cc2)CC12CC2 (racemic)
Key: 8.34

Exercise: Query pIC50 on CSNK1A1 (Homo sapiens (Human)) for CC1(C)Cc2[nH]c(-c3ccnc(NC(=O)Cc4ccc(F)cc4)c3)c(-c3cccc(F)c3)c2C(=O)N1
Key: 8.72

Exercise: Query pIC50 on CSNK1A1 (Homo sapiens (Human)) for CC1(C)Cc2[nH]c(-c3ccnc(NC(=O)Cc4ccc(F)cc4)c3)c(-c3ccccc3)c2C(=O)N1
Key: 8.89

Exercise: Query pIC50 on CSNK1A1 (Homo sapiens (Human)) for Cn1ccc2[nH]c(-c3ccnc(NC(=O)C(CC(F)F)c4ccc(F)cc4)c3)c(-c3ccc(F)cc3)c2c1=O (racemic) [Example 107]
Key: 8.46

Exercise: Query pIC50 on CSNK1A1 (Homo sapiens (Human)) for CC(C(=O)Nc1cc(-c2[nH]c3ccn(C)c(=O)c3c2-c2ccccc2C#N)ccn1)c1ccc(F)cc1 (racemic)
Key: 7.60

====

readoutLabel: log10(IC50) (log10 of the value in nM)
Answers are given as log10 of IC50 in nM.

Exercise: Query log10(IC50) on CSNK1D (Homo sapiens (Human)) for O=C(Nc1cc(-c2[nH]c3ccn(C4CC4)c(=O)c3c2-c2ccccc2)ccn1)C(CC(F)F)c1ccc(F)cc1 (single isomer, unassigned) [Example 158]
Sequence (P48730 whole entry): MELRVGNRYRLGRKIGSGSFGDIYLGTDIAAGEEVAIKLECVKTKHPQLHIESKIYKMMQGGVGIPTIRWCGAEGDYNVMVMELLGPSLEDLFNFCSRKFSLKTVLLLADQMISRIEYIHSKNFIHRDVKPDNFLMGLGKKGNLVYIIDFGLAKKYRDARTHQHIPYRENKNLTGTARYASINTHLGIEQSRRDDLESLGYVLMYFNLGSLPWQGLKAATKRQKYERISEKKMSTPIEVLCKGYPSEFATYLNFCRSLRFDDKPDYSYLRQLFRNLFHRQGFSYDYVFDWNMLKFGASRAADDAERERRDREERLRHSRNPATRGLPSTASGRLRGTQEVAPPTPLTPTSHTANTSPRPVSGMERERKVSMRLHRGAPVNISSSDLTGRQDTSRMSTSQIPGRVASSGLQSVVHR
Key: 0.71

Exercise: Query log10(IC50) on CSNK1D (Homo sapiens (Human)) for Cn1cc(CC(F)(F)F)c2[nH]c(-c3ccnc(NC(=O)C(CC(F)F)c4ccc(F)cc4)c3)c(-c3ccccc3)c2c1=O (single isomer, unassigned; (-)) [Example 19]
Key: 1.15

Exercise: Query log10(IC50) on CSNK1D (Homo sapiens (Human)) for CN1CCc2[nH]c(-c3ccnc(NC(=O)C(CC(F)F)c4ccc(F)cc4)c3)c(-c3ccccc3)c2C1=O (racemic) [Example 2]
Key: 0.52

Exercise: Query log10(IC50) on CSNK1D (Homo sapiens (Human)) for CN1CCc2[nH]c(-c3ccnc(NC(=O)C(CC(F)F)c4ccc(F)cc4)c3)c(-c3ccccc3)c2C1=O (single isomer, unassigned) [Example 4]
Key: 0.36

Exercise: Query log10(IC50) on CSNK1D (Homo sapiens (Human)) for CN1C(=O)c2c([nH]c(-c3ccnc(NC(=O)C(CC(F)F)c4ccc(F)cc4)c3)c2-c2ccccc2)CC12CC2 (racemic)
Key: 0.71

Exercise: Query log10(IC50) on CSNK1D (Homo sapiens (Human)) for CC(C(=O)Nc1cc(-c2[nH]c3c(c2-c2ccc(F)cc2)C(=O)NC(C)(C)C3)ccn1)c1ccc(F)cc1 (single isomer, unassigned) [Example 96]
Key: 0.30

Exercise: Query log10(IC50) on CSNK1D (Homo sapiens (Human)) for CC(C(=O)Nc1cc(-c2[nH]c3c(c2-c2ccccc2)C(=O)N(C)CC3CC(F)(F)F)ccn1)c1ccc(F)cc1 (stereo not drawn)
Key: 0.59

Exercise: Query log10(IC50) on CSNK1D (Homo sapiens (Human)) for CC(C(=O)Nc1cc(-c2[nH]c3ccn(C)c(=O)c3c2-c2ccc(F)nc2)ccn1)c1ccc(F)cc1 (racemic)
Key: 1.00

Exercise: Query log10(IC50) on CSNK1D (Homo sapiens (Human)) for CN1CC(CC2CC2)c2[nH]c(-c3ccnc(NC(=O)Cc4ccc(F)cc4)c3)c(-c3ccccc3)c2C1=O (racemic)
Key: 0.34

Exercise: Query log10(IC50) on CSNK1D (Homo sapiens (Human)) for CC(C(=O)Nc1cc(-c2[nH]c3ccn(C)c(=O)c3c2-c2ccc(F)cc2)ccn1)c1ccc(F)cc1 (racemic) [Example 100]
Key: 0.93

Exercise: Query log10(IC50) on CSNK1D (Homo sapiens (Human)) for CC(C(=O)Nc1cc(-c2[nH]c3c(c2-c2ccccc2)C(=O)N(C)C2(CCC2)C3)ccn1)c1ccc(F)cc1 (single isomer, unassigned; (-)) [Example 53]
Key: 1.20

Exercise: Query log10(IC50) on CSNK1D (Homo sapiens (Human)) for O=C(Nc1cc(-c2[nH]c3ccn(C4CC4)c(=O)c3c2-c2ccc(F)cc2)ccn1)C(CC(F)F)c1ccc(F)cc1 (single isomer, unassigned; (+)) [Example 136]
Key: 0.32

Exercise: Query log10(IC50) on CSNK1D (Homo sapiens (Human)) for CC(C(=O)Nc1cc(-c2[nH]c3ccn(C)c(=O)c3c2-c2cccnc2F)ccn1)c1ccc(F)cc1 (racemic)
Key: 1.32

Exercise: Query log10(IC50) on CSNK1D (Homo sapiens (Human)) for O=C(Cc1ccc(F)cc1)Nc1cc(-c2[nH]c3cc[nH]c(=O)c3c2-c2ccccc2)ccn1
Key: 0.73

Exercise: Query log10(IC50) on CSNK1D (Homo sapiens (Human)) for Cc1cn(C)c(=O)c2c(-c3ccc(F)cc3)c(-c3ccnc(NC(=O)C(C)c4ccc(F)cc4)c3)[nH]c12 (single isomer, unassigned; (-)) [Example 31]
Key: 1.15

Exercise: Query log10(IC50) on CSNK1D (Homo sapiens (Human)) for CC(C(=O)Nc1cc(-c2[nH]c3c(c2-c2ccccc2)C(=O)N(C)C2(CCC2)C3)ccn1)c1ccc(F)cc1 (racemic) [Example 52]
Key: 0.58

Exercise: Query log10(IC50) on CSNK1D (Homo sapiens (Human)) for CN1CCc2[nH]c(-c3ccnc(NC(=O)C(CC(F)F)c4ccc(F)cc4)c3)c(-c3ccc(F)cc3)c2C1=O (racemic)
Key: 0.74

Exercise: Query log10(IC50) on CSNK1D (Homo sapiens (Human)) for Cn1cc(CC(F)F)c2[nH]c(-c3ccnc(NC(=O)C(CC(F)F)c4ccc(F)cc4)c3)c(-c3ccccc3)c2c1=O (racemic) [Example 147]
Key: 0.46

Exercise: Query log10(IC50) on CSNK1D (Homo sapiens (Human)) for CC(C(=O)Nc1cc(-c2[nH]c3c(CC(F)(F)F)cn(C)c(=O)c3c2-c2ccc(F)cc2)ccn1)c1ccc(F)cc1 (single isomer, unassigned; (-)) [Example 23]
Key: 1.57

Exercise: Query log10(IC50) on CSNK1D (Homo sapiens (Human)) for CC(C(=O)Nc1cc(-c2[nH]c3ccn(C)c(=O)c3c2-c2ccsc2)ccn1)c1ccc(F)cc1 (racemic)
Key: 1.00

Exercise: Query log10(IC50) on CSNK1D (Homo sapiens (Human)) for CC1(C)Cc2[nH]c(-c3ccnc(NC(=O)Cc4ccc(F)cc4)c3)c(-c3ccc(F)cc3)c2C(=O)N1
Key: 0.54

Exercise: Query log10(IC50) on CSNK1D (Homo sapiens (Human)) for Cn1cc(CC(F)(F)F)c2[nH]c(-c3ccnc(NC(=O)C(CC(F)F)c4ccc(F)cc4)c3)c(-c3ccccc3)c2c1=O (racemic) [Example 18]
Key: 0.49

Exercise: Query log10(IC50) on CSNK1D (Homo sapiens (Human)) for Cn1ccc2[nH]c(-c3ccnc(NC(=O)C(CC(F)F)c4ccc(F)cc4)c3)c(-c3ccc(Cl)s3)c2c1=O (racemic)
Key: 0.68

Exercise: Query log10(IC50) on CSNK1D (Homo sapiens (Human)) for CN1CCc2[nH]c(-c3ccnc(NC(=O)C(CC(F)F)c4ccc(F)cc4)c3)c(-c3cccnc3)c2C1=O (racemic) [Example 9]
Key: 0.96

====

Measured log10(IC50) on CSNK1D (Homo sapiens (Human)) follows.
Answers are given as log10 of IC50 in nM.

Exercise: Fill in the blank: the reported log10(IC50) of CC1(C)CNC(=O)c2c1[nH]c(-c1ccnc(NC(=O)C(CC(F)F)c3ccc(F)cc3)c1)c2-c1ccccc1 (single isomer, unassigned) [Example 45] is ____.
Key: 0.43

Exercise: Fill in the blank: the reported log10(IC50) of Cn1cc(CC2CC2)c2[nH]c(-c3ccnc(NC(=O)C(CC(F)F)c4ccc(F)cc4)c3)c(-c3ccc(F)cc3)c2c1=O (racemic) [Example 65] is ____.
Key: 0.82

Exercise: Fill in the blank: the reported log10(IC50) of Cn1cc(CC2CC2)c2[nH]c(-c3ccnc(NC(=O)Cc4ccc(F)cc4)c3)c(-c3ccccc3)c2c1=O [Example 56] is ____.
Key: 0.68

Exercise: Fill in the blank: the reported log10(IC50) of Cc1c(-c2ccnc(NC(=O)C(C)c3ccc(F)cc3)c2)[nH]c2ccn(C)c(=O)c12 (racemic) [Example 132] is ____.
Key: 1.04

Exercise: Fill in the blank: the reported log10(IC50) of CC(C(=O)Nc1cc(-c2[nH]c3ccn(C)c(=O)c3c2-c2ccc(F)c(F)c2)ccn1)c1ccc(F)cc1 (racemic) [Example 114] is ____.
Key: 0.83

Exercise: Fill in the blank: the reported log10(IC50) of CC1CN(C)C(=O)c2c1[nH]c(-c1ccnc(NC(=O)C(CC(F)F)c3ccc(F)cc3)c1)c2-c1ccccc1 (stereo not shown) [Example 39] is ____.
Key: 0.57

Exercise: Fill in the blank: the reported log10(IC50) of CC(C(=O)Nc1cc(-c2[nH]c3ccn(C)c(=O)c3c2-c2cc(F)ccc2C#N)ccn1)c1ccc(F)cc1 (racemic) [Example 127] is ____.
Key: 1.52

Exercise: Fill in the blank: the reported log10(IC50) of CC1CN(C)C(=O)c2c1[nH]c(-c1ccnc(NC(=O)C(C)c3ccc(F)cc3)c1)c2-c1ccccc1 (stereo not shown) [Example 37] is ____.
Key: 0.61

Exercise: Fill in the blank: the reported log10(IC50) of CC(C(=O)Nc1cc(-c2[nH]c3c(CC(F)(F)F)cn(C)c(=O)c3c2-c2ccccc2)ccn1)c1ccc(F)cc1 (single isomer, unassigned; (+)) [Example 15] is ____.
Key: 0.45

Exercise: Fill in the blank: the reported log10(IC50) of COCCN(C)C(=O)c1ccc(CC(=O)Nc2cc(-c3[nH]c4ccn(C)c(=O)c4c3-c3ccc(F)cc3)ccn2)cc1 [Example 143] is ____.
Key: 0.43

Exercise: Fill in the blank: the reported log10(IC50) of CC(C(=O)Nc1cc(-c2[nH]c3ccn(C)c(=O)c3c2-c2ccnc(N)c2)ccn1)c1ccc(F)cc1 (racemic) [Example 126] is ____.
Key: 1.80

Exercise: Fill in the blank: the reported log10(IC50) of Cc1cn(C)c(=O)c2c(-c3ccccc3)c(-c3ccnc(NC(=O)C(C)c4ccc(F)cc4)c3)[nH]c12 (racemic) [Example 38] is ____.
Key: 0.85

Exercise: Fill in the blank: the reported log10(IC50) of CN1CCc2[nH]c(-c3ccnc(NC(=O)Cc4ccc(C(=O)N5CCNCC5)cc4)c3)c(-c3ccc(F)cc3)c2C1=O [Example 144] is ____.
Key: 0.48

Exercise: Fill in the blank: the reported log10(IC50) of CC(C(=O)Nc1cc(-c2[nH]c3c(c2-c2ccccc2)C(=O)N(C)CC3CC2CC2)ccn1)c1ccc(F)cc1 (stereo not shown) [Example 57] is ____.
Key: 0.46

Exercise: Fill in the blank: the reported log10(IC50) of CC(C(=O)Nc1cc(-c2[nH]c3c(c2-c2ccccc2)C(=O)NCC3(C)C)ccn1)c1ccc(F)cc1 (racemic) [Example 46] is ____.
Key: 0.52

Exercise: Fill in the blank: the reported log10(IC50) of CC(C(=O)Nc1cc(-c2[nH]c3c(c2-c2ccc(Cl)cc2)C(=O)NC(C)(C)C3)ccn1)c1ccc(F)cc1 (racemic) [Example 89] is ____.
Key: 0.63

Exercise: Fill in the blank: the reported log10(IC50) of CC(C(=O)Nc1cc(-c2[nH]c3ccn(C)c(=O)c3c2-c2cccc(Cl)c2)ccn1)c1ccc(F)cc1 (racemic) [Example 106] is ____.
Key: 1.04

Exercise: Fill in the blank: the reported log10(IC50) of CC(C(=O)Nc1cc(-c2[nH]c3c(CC(F)(F)F)cn(C)c(=O)c3c2-c2ccc(F)cc2)ccn1)c1ccc(F)cc1 (racemic) [Example 22] is ____.
Key: 0.51

Exercise: Fill in the blank: the reported log10(IC50) of CN1C(=O)c2c([nH]c(-c3ccnc(NC(=O)C(CC(F)F)c4ccc(F)cc4)c3)c2-c2ccccc2)CC12CCC2 (single isomer, unassigned; (+)) [Example 51] is ____.
Key: 0.38

Exercise: Fill in the blank: the reported log10(IC50) of CC(C(=O)Nc1cc(-c2[nH]c3ccn(C)c(=O)c3c2-c2ccc(Cl)s2)ccn1)c1ccc(F)cc1 (racemic) [Example 122] is ____.
Key: 0.95

Exercise: Fill in the blank: the reported log10(IC50) of CN1C(=O)c2c([nH]c(-c3ccnc(NC(=O)C(CC(F)F)c4ccc(F)cc4)c3)c2-c2ccc(F)cc2)CC12CC2 (racemic) [Example 81] is ____.
Key: 0.63

Exercise: Fill in the blank: the reported log10(IC50) of CC(C(=O)Nc1cc(-c2[nH]c3ccn(C)c(=O)c3c2-c2ccccc2C#N)ccn1)c1ccc(F)cc1 (racemic) [Example 123] is ____.
Key: 1.34

Exercise: Fill in the blank: the reported log10(IC50) of CC(C(=O)Nc1cc(-c2[nH]c3ccn(C)c(=O)c3c2-c2ccccc2Cl)ccn1)c1ccc(F)cc1 (racemic) [Example 112] is ____.
Key: 1.15

Exercise: Fill in the blank: the reported log10(IC50) of O=C(Nc1cc(-c2[nH]c3ccn(C4CC4)c(=O)c3c2-c2ccc(F)cc2)ccn1)C(CC(F)F)c1ccc(F)cc1 (single isomer, unassigned; (-)) [Example 135] is ____.
Key: 0.73

Exercise: Fill in the blank: the reported log10(IC50) of Cn1ccc2[nH]c(-c3ccnc(NC(=O)C(CC(F)F)c4ccc(F)cc4)c3)c(-c3ccc(F)cc3)c2c1=O (single isomer, unassigned; (-)) [Example 108] is ____.
Key: 0.97
